Attribution: patent US9181258B2

Biological target: human PIM1 (Homo sapiens (Human), UniProt P11309)
Sequence (P11309 whole entry): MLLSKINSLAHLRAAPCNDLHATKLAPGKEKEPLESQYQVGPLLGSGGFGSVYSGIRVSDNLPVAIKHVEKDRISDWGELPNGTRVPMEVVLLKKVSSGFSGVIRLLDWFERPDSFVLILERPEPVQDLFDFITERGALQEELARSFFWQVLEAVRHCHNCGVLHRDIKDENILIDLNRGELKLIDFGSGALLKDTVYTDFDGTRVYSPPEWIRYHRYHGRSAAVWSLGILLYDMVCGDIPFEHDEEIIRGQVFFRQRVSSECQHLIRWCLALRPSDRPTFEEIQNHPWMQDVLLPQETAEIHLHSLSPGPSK
Where a name gives a salt, the structure may show the parent alone.
observable: IC50 (µM)

COc1ccc(-c2c(-c3cccc(OC(F)(F)F)c3)cc3n2[C@@H](CCN)CNC3=O)cc1 [Compound 116, hydrochloride] ... 0.003

(I) Cc1cccc(-c2c(-c3cccc(OC(F)(F)F)c3)cc3n2[C@@H](CCN)CNC3=O)c1 [Compound 92, hydrochloride]
(II) CC(=O)c1ccc(-c2c(-c3cccc(OC(F)(F)F)c3)cc3n2[C@@H](CCCN)CNC3=O)cc1 [Compound 110, hydrochloride]
Prompt: Which value of IC50 is smaller, the one for I or the one for II ? Could you answer with the label of the item you picked?
Response: I
(I: 0.005 µM, II: 0.022 µM)

(A) CNC(=O)c1ccc(-c2c(-c3cccc(OC(F)(F)F)c3)cc3n2C(CCO)CNC3=O)cc1 (stereo not shown) [Compound 80]
(B) CN1CCN(Cc2ccc(-c3c(-c4cccc(OC(F)(F)F)c4)cc4n3C(CCCl)CNC4=O)cc2)CC1 (stereo not shown) [Compound 71, trifluoroacetate]
Prompt: Which value of IC50 is smaller, the one for A or the one for B ? Could you answer with the label of the item you picked?
Response: B
